Would you kindly list Efficacy (% JWH-018 activity), Emax for each of these compounds?
Molecular target: hCB1 receptor (Homo sapiens, UniProt P21554)
Sequence (P21554 whole entry): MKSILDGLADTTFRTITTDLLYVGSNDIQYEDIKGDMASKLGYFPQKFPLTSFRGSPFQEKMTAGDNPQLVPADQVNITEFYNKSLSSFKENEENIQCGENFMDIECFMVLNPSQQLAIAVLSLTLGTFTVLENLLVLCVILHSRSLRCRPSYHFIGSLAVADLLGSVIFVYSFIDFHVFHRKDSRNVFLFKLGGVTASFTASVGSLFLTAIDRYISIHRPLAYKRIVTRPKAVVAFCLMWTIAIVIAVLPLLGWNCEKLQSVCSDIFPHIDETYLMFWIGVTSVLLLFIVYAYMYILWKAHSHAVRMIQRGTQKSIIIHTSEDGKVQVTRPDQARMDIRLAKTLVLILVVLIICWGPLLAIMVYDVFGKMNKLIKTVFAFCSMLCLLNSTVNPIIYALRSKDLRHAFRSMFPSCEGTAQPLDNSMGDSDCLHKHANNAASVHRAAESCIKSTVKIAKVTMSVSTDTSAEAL
Experiment: AequoScreen hCB1 receptor assay (flash luminescence, recombinant CHO-K1 cells)
Conditions: Emax from dose-response curves, normalized to JWH-018 at 20 µg/mL; triplicates
Report the figure in % JWH-018 activity without appending any unit label.

Entry O=C(c1cccc2ccccc12)c1cn(CCCCCF)c2cc(O)ccc12 [6-OH indole AM-2201] under hCB1 receptor (Homo sapiens, UniProt P21554) had Efficacy (% JWH-018 activity), Emax of 94.04

Item: O=C(c1cccc2ccccc12)c1cn(CCCCCF)c2c(O)cccc12 [7-OH indole AM-2201] | System: hCB1 receptor (Homo sapiens, UniProt P21554) | Efficacy (% JWH-018 activity), Emax: 109.80

Field Efficacy (% JWH-018 activity), Emax (system: hCB1 receptor (Homo sapiens, UniProt P21554)) for entry CCCCCn1cc(C(=O)c2cccc3ccccc23)c2ccc(O)cc21 [6-OH indole JWH-018] = 59.31

// assay hCB1 receptor (Homo sapiens, UniProt P21554), entry CCCCCn1nc(C(=O)c2cccc3ccccc23)c2ccccc21 [THJ-018, reference compound] , Efficacy (% JWH-018 activity), Emax value = 96.34

Summary: CCCCCn1cc(C(=O)c2cccc3ccccc23)c2cccc(O)c21 [7-OH indole JWH-018] , hCB1 receptor (Homo sapiens, UniProt P21554), Efficacy (% JWH-018 activity), Emax = 15.81

----------
For each record, write down the corresponding Emax.
Biological target: hCB1 receptor (Homo sapiens)
Assay: AequoScreen hCB1 receptor assay (flash luminescence, recombinant CHO-K1 cells)
Settings: CHO-K1, read-out: Efficacy (% JWH-018 activity), Emax, Emax from dose-response curves, normalized to JWH-018 at 20 µg/mL; triplicates
Give the quantity in %, number only.

The measured Emax associated with "O=C(c1cccc2ccccc12)c1cn(CCCCCO)c2ccccc12" reads 63.1

Record O=C(c1cccc2ccccc12)c1nn(CCCCCF)c2ccccc12 [THJ-2201, reference compound] . Reported Emax: 92.8

Reported Emax ( "CCCCCn1cc(C(=O)c2cccc3ccccc23)c2cc(O)ccc21" ) = 88.9

Per the records, this molecule ( "CCCCCn1cc(C(=O)c2cccc3ccccc23)c2ccc(O)cc21" ) has Emax equal to 59

----------
Record form. Attribute: Emax. Fill in for each entry.
Target: hCB1 receptor (Homo sapiens)
Assay: AequoScreen hCB1 receptor assay (flash luminescence, recombinant CHO-K1 cells)
Conditions: CHO-K1, read-out: Efficacy (% JWH-018 activity), Emax, Emax from dose-response curves, normalized to JWH-018 at 20 µg/mL; triplicates
Give your result in % as a bare value.

Test item CCC(O)CCn1cc(C(=O)c2cccc3ccccc23)c2ccccc21 (stereo not shown) ; hCB1 receptor (Homo sapiens); reported Emax was 96

Result for CCC(O)CCn1nc(C(=O)c2cccc3ccccc23)c2ccccc21 (stereo not shown) , tested on hCB1 receptor (Homo sapiens), Emax: 99.8

Readout Emax for O=C(c1cccc2ccccc12)c1cn(CCCC(O)CF)c2ccccc12 (stereo not shown) , test system hCB1 receptor (Homo sapiens), was 97.1

Considering "CCCCCn1cc(C(=O)c2cccc3ccccc23)c2c(O)cccc21" , its Emax with hCB1 receptor (Homo sapiens) was recorded as 89.8

Case O=C(c1cccc2ccccc12)c1nn(CCC(O)CCF)c2ccccc12 (stereo not shown) , hCB1 receptor (Homo sapiens), Emax recorded as 101

hCB1 receptor (Homo sapiens) data for "O=C(c1cccc2ccccc12)c1c(O)n(CCCCCF)c2ccccc12" ; its Emax: 0.26

hCB1 receptor (Homo sapiens) Emax of "CCCCCn1c(O)c(C(=O)c2cccc3ccccc23)c2ccccc21" is -0.38

Observed Emax on hCB1 receptor (Homo sapiens), entry CCCC(O)Cn1nc(C(=O)c2cccc3ccccc23)c2ccccc21 (stereo not shown) , equals 93.6

Entry O=C(c1cccc2ccccc12)c1nn(CCCC(O)CF)c2ccccc12 (stereo not shown) , tested on hCB1 receptor (Homo sapiens), has a reported Emax of 99.2

"O=C(c1cccc2ccccc12)c1cn(CCCCCF)c2c(O)cccc12" on hCB1 receptor (Homo sapiens) gives Emax = 110
